Values from patent US9938269B2

- measured on: PDE10A (human) (Homo sapiens, UniProt Q9Y233)
- Sequence (Q9Y233 whole entry): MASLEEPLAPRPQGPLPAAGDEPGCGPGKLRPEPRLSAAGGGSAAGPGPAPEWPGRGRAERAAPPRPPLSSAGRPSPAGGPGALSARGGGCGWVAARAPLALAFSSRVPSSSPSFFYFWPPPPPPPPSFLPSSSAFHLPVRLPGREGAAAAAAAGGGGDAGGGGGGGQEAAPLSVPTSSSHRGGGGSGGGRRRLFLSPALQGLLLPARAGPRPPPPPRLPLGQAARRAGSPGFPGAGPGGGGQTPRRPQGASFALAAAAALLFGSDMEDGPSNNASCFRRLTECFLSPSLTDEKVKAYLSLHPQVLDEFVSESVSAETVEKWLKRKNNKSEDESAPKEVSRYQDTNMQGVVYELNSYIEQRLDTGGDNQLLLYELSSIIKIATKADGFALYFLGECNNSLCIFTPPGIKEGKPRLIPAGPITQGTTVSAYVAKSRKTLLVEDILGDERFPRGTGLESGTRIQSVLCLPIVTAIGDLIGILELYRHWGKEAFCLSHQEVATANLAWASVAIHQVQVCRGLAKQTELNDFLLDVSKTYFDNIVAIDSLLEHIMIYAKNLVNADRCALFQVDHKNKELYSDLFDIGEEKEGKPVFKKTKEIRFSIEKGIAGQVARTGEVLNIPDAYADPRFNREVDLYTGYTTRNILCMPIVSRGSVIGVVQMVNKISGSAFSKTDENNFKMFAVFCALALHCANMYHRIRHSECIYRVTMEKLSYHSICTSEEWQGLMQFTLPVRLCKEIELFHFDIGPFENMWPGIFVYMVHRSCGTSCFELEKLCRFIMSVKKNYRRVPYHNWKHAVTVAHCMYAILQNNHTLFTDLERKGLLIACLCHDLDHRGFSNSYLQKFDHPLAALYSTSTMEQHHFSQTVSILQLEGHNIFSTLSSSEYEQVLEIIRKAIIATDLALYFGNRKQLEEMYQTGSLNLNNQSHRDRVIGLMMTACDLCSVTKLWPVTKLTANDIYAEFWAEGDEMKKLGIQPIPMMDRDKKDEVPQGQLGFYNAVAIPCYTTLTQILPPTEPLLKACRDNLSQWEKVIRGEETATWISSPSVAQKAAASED
IC50 overview

Fill: IC50 (PDE10A (human) (Homo sapiens, UniProt Q9Y233)) for this molecule `Cc1c(-c2ccnc3c2C(=O)N(CCc2ccc4ccccc4n2)C3)cnn1C`
< 100 nM

---

- method summary: Determination of the microsomal half-life, rat liver microsomes
- test parameters: rat, liver microsomes, pH 7.4
Structures can show the parent of a compound that is named as a salt.
microsomal CLint at 0.5 μM overview

Known results for compounds:
>>> assay_result("Cc1cnc(CCN2Cc3nccc(-c4ccncc4)c3C2=O)cc1C [compound 507, trifluoroacetate]")
"> 220 µL/min/mg"
>>> assay_result("COCC1CN(c2cccc3c2C(=O)N(CCc2ccc4ccccc4n2)C3)CCO1 (centres unmarked) [Example 298]")
"100 to 220 µL/min/mg"
>>> assay_result("O=C1c2cccc(-c3ccncc3)c2C(=O)N1CCc1ccc2ccccc2n1 [Example 249, dihydrochloride]")
"> 220 µL/min/mg"
>>> assay_result("CCN1CCN(C2CCN(c3cccc4c3C(=O)N(CCc3ccc5ccccc5n3)C4)CC2)CC1 [Example 157, trifluoroacetate]")
"< 100 µL/min/mg"
>>> assay_result("COc1ccc(N2CCN(C)CC2)c2c1CN(CCc1ccc3ccccc3n1)C2=O [Example 261, di-trifluoroacetate]")
"> 220 µL/min/mg"
>>> assay_result("O=C1c2c(-c3ccncc3)ccnc2CN1CCc1cn2ccccc2n1 [Example 369]")
"< 100 µL/min/mg"
>>> assay_result("[2H]C1([2H])OC([2H])([2H])C([2H])([2H])N(c2ccnc3c2C(=O)N(CCc2ccc4ccccc4n2)C3)C1([2H])[2H] [compound 485]")
"100 to 220 µL/min/mg"
>>> assay_result("COc1cccc(CCN2Cc3nccc(-c4cccnc4)c3C2=O)n1 [compound 503, trifluoroacetate]")
"100 to 220 µL/min/mg"
>>> assay_result("O=C1c2c(-c3ccoc3)ccnc2CN1CCc1cn2ccccc2n1 [compound 414]")
"< 100 µL/min/mg"
>>> assay_result("O=C1c2c(-c3ccoc3)ccnc2CN1CCc1cn2cc(F)ccc2n1 [compound 526]")
"100 to 220 µL/min/mg"

Please give measured microsomal CLint at 0.5 μM of the following entry: CN1CCN(c2cccc3c2C(=O)N(CCc2nc4ccccn4n2)C3)CC1 [Example 233]
< 100 µL/min/mg

Please give measured microsomal CLint at 0.5 μM of the following entry: COc1ccc(-c2ccncc2)c2c1CN(CCc1nc3ccccc3n1C)C2=O [Example 370]
< 100 µL/min/mg

Please give measured microsomal CLint at 0.5 μM of the following entry: O=C1c2c(N3CCOCC3)ccnc2CN1CCc1ccc2ccccc2n1 [Example 119]
< 100 µL/min/mg

Please give measured microsomal CLint at 0.5 μM of the following entry: COc1ccc(N2CCOCC2)c2c1CN(CCc1nc3ccccc3n1C)C2=O [Example 371]
< 100 µL/min/mg

Please give measured microsomal CLint at 0.5 μM of the following entry: O=C1c2c(-c3ccncc3)ccnc2CN1CCc1nc2ccccc2o1 [compound 418]
< 100 µL/min/mg

Please give measured microsomal CLint at 0.5 μM of the following entry: COc1ccc(-c2cncnc2)c2c1C(=O)N(CCc1cn3ccccc3n1)C2 [compound 549, trifluoroacetate]
< 100 µL/min/mg

Please give measured microsomal CLint at 0.5 μM of the following entry: COc1ccc(-c2cncnc2)c2c1CN(CCc1ccc3ccccc3n1)C2=O [Example 183]
100 to 220 µL/min/mg

---

- method summary: Determination of the microsomal half-life, human liver microsomes
- test parameters: human, liver microsomes, pH 7.4
recorded endpoint: microsomal CLint at 0.5 μM

>>> assay_result("O=C1c2c(N3CCC4(COC4)C3)ccnc2CN1CCc1ccc2ccccc2n1 [Example 257]")
"100 to 220 µL/min/mg"

Please give measured microsomal CLint at 0.5 μM of the following entry: CC1CCN(c2cccc3c2C(=O)N(CCc2ccc4ccccc4n2)C3)CC1N (centres unmarked) [Example 174]
< 100 µL/min/mg

Please give measured microsomal CLint at 0.5 μM of the following entry: CNCc1ccc(-c2cccc3c2C(=O)N(CCc2ccc4ccccc4n2)C3)cc1 [Example 194]
100 to 220 µL/min/mg

Please give measured microsomal CLint at 0.5 μM of the following entry: Cc1ncc(-c2ccnc3c2C(=O)N(CCc2ccc4ccccc4n2)C3)s1 [Example 326]
100 to 220 µL/min/mg

Please give measured microsomal CLint at 0.5 μM of the following entry: Cc1cc(-c2ccnc3c2C(=O)N(CCc2ccc4ccccc4n2)C3)n(C)n1 [Example 334]
< 100 µL/min/mg

Please give measured microsomal CLint at 0.5 μM of the following entry: Cc1c(-c2ccnc3c2C(=O)N(CCc2ccc4ccccc4n2)C3)cnn1C [Example 332]
< 100 µL/min/mg

Please give measured microsomal CLint at 0.5 μM of the following entry: O=C1c2c(N3CCOCC3)ccnc2CN1CCc1ccc(Cl)cn1 [compound 505]
< 100 µL/min/mg

---

microsomal CLint at 0.5 μM overview
- method summary: Determination of the microsomal half-life, rat liver microsomes
- test parameters: rat, liver microsomes, pH 7.4
Counter-ions that a name gives are not always drawn.

Known results for compounds:
>>> assay_result("COc1ccc(-c2ccncc2)c2c1C(=O)N(CCc1nc3ccccc3s1)C2")
"100 to 220 µL/min/mg"
>>> assay_result("Cc1cnc(CCN2Cc3nccc(-c4ccncc4)c3C2=O)c(C)c1")
"100 to 220 µL/min/mg"

Please give measured microsomal CLint at 0.5 μM of the following entry: `Cc1ccnc(CCN2Cc3nccc(N4CCOCC4)c3C2=O)c1`
< 100 µL/min/mg

Please give measured microsomal CLint at 0.5 μM of the following entry: `O=C1c2c(cccc2N2CCN(c3ccncc3)CC2)CN1CCc1ccc2ccccc2n1`
< 100 µL/min/mg

Please give measured microsomal CLint at 0.5 μM of the following entry: Cc1ccc2c(c1)nc(CCN1Cc3cccc(N4CCOCC4)c3C1=O)n2C [Example 306, trifluoroacetate]
< 100 µL/min/mg

Please give measured microsomal CLint at 0.5 μM of the following entry: `COc1ccc(-c2ccnn2C)c2c1C(=O)N(CCc1nc3ccccc3s1)C2`
100 to 220 µL/min/mg

Please give measured microsomal CLint at 0.5 μM of the following entry: `CCc1ccn2cc(CCN3Cc4nccc(-c5ccncc5)c4C3=O)nc2c1`
100 to 220 µL/min/mg

---

- method summary: Determination of the microsomal half-life, rat liver microsomes
- test parameters: rat, liver microsomes, pH 7.4
Where a name gives a salt, the structure may show the parent alone.
microsomal CLint at 0.5 μM overview

>>> assay_result("Cn1nccc1-c1ccnc2c1C(=O)N(CCc1nc3ccccc3n1C)C2")
"< 100 µL/min/mg"
>>> assay_result("O=C1c2c(-c3cncnc3)ccnc2CN1CCc1nc2ccccn2n1")
"< 100 µL/min/mg"
>>> assay_result("O=C1c2c(-c3cncnc3)ccnc2CN1CCc1ccc2ccccc2n1")
"< 100 µL/min/mg"
>>> assay_result("Cc1c(-c2ccnc3c2C(=O)N(CCc2ccc4ccccc4n2)C3)cnn1C")
"< 100 µL/min/mg"
>>> assay_result("O=C1c2c(N3CCNCC3)ccnc2CN1CCc1ccc2ccccc2n1")
"< 100 µL/min/mg"

Please give measured microsomal CLint at 0.5 μM of the following entry: O=C1c2c(N3CCOCC3)ccnc2CN1CCc1cn2cc(F)ccc2n1 [compound 493, trifluoroacetate]
< 100 µL/min/mg

Please give measured microsomal CLint at 0.5 μM of the following entry: `O=C1c2c(cccc2N2CCS(=O)(=O)CC2)CN1CCc1ccc2ccccc2n1`
< 100 µL/min/mg

Please give measured microsomal CLint at 0.5 μM of the following entry: `COc1ccc(-c2cc[nH]n2)c2c1C(=O)N(CCc1nc3ccccc3s1)C2`
> 220 µL/min/mg

Please give measured microsomal CLint at 0.5 μM of the following entry: `COc1ccc(-c2ccnc3c2C(=O)N(CCc2ccc4ccccc4n2)C3)cc1`
> 220 µL/min/mg

---

Where a name gives a salt, the structure may show the parent alone.
A set of molecules tested on PDE10A (human) (Homo sapiens, UniProt Q9Y233), with measured IC50:

Known results for molecules:
>>> assay_result("CN1CCN(c2cccc3c2C(=O)N(CCc2ccc4ccccc4n2)C3)CC1")
"200 to 500 nM"
>>> assay_result("Cc1cnc(CCN2Cc3nccc(N4CCOCC4)c3C2=O)c(C)c1")
"< 100 nM"
>>> assay_result("Cc1ncccc1COc1cccc2c1C(=O)N(CCc1ccc3ccccc3n1)C2")
"< 100 nM"
>>> assay_result("CC(C)c1ccc(CCN2Cc3nccc(N4CCOCC4)c3C2=O)nc1")
"< 100 nM"

Could you now look at the following molecule, please?
Fill: IC50 (PDE10A (human) (Homo sapiens, UniProt Q9Y233)) for this molecule Cn1c(CCN2Cc3cccc(N4CCOCC4)c3C2=O)nc2c(F)cccc21 [Example 307, trifluoroacetate]
200 to 500 nM
